- assay: Oral bioavailability in Sprague-Dawley rat at 15 mg/kg administered via gavage by LC/MS/MS analysis
- Assay type: ADME, organism-based
- stated.conditions: in vivo
readout.name: bioavailability (%)

A selection of reference data follows.
[[record]]
molecular_string = "C=C[C@@H]1C[C@]1(NC(=O)[C@@H]1C[C@@H](Oc2ncc(OC)c3cc(OC)ccc23)CN1C(=O)[C@@H](NC(=O)OC(C)(C)C)C(C)(C)C)C(=O)NS(=O)(=O)C1CC1"
meas_value = 2

[[record]]
molecular_string = "CC[C@@H]1C[C@]1(NC(=O)[C@@H]1C[C@@H](Oc2nccc3cc(OC)ccc23)CN1C(=O)[C@@H](NC(=O)OC(C)(C)C)C(C)(C)C)C(=O)NS(=O)(=O)C1CC1"
meas_value = 4


(I) C=C[C@@H]1C[C@]1(NC(=O)[C@@H]1C[C@@H](Oc2nccc3cc(OC)ccc23)CN1C(=O)[C@@H](NC(=O)OC(C)(C)C)C(C)(C)C)C(=O)NS(=O)(=O)C1CC1
(II) C=C[C@@H]1C[C@]1(NC(=O)[C@@H]1C[C@@H](Oc2nccc3c(Cl)cccc23)CN1C(=O)[C@@H](NC(=O)OC(C)(C)C)C(C)(C)C)C(=O)NS(=O)(=O)C1CC1
(III) C=C[C@@H]1C[C@]1(NC(=O)[C@@H]1C[C@@H](Oc2nccc3c(OC)cccc23)CN1C(=O)[C@@H](NC(=O)OC(C)(C)C)C(C)(C)C)C(=O)NS(=O)(=O)C1CC1
(IV) C=C[C@@H]1C[C@]1(NC(=O)[C@@H]1C[C@@H](Oc2nccc3cc(OC)ccc23)CN1C(=O)[C@@H](NC(=O)OC(C)(C)C)C(C)C)C(=O)NS(=O)(=O)C1CC1
(V) C=C[C@@H]1C[C@]1(NC(=O)[C@@H]1C[C@@H](Oc2nccc3cc(OC)ccc23)CN1C(=O)[C@@H](NC(=O)O[C@H]1CCOC1)C(C)(C)C)C(=O)NS(=O)(=O)C1CC1
# input Ascending by bioavailability, please: list the compounds accordingly. Answer format: the labels, in the requested order.
# output V, II, III, I, IV
(V: 3%, II: 6%, III: 9%, I: 18%, IV: 28%)

Cited source: ChEMBL document CHEMBL3124900
